test: Microsome (oxidative metabolism) stability, rat; format: in vitro ADME; conditions: liver microsomes 0.5 mg/mL, NADPH, read-out: T1/2 Rat
metric: half-life at 1 µM

Please give the measured half-life at 1 µM for this compound: O=S(=O)(NC1CCCC(N2c3ccccc3CCc3ccccc32)C1O)c1ccc(OC(F)(F)F)cc1 (centres unmarked)
3 min

Please give the measured half-life at 1 µM for this compound: O=S(=O)(N[C@H]1COC[C@@H](n2c3ccc(Cl)cc3c3cc(Cl)ccc32)[C@@H]1O)c1ccc(OC(F)(F)F)cc1
> 256 min

###

test: Microsome (oxidative metabolism) stability, human; type: in vitro ADME; details: liver microsomes 0.5 mg/mL, NADPH, read-out: T1/2 Human
metric: half-life at 1 µM (min)
Note: unit min is implicit; provide only the numeric part.

Please give the measured half-life at 1 µM for this compound: O=S(=O)(NC1CCCC(N2c3ccccc3CCc3ccccc32)C1O)c1ccc(OC(F)(F)F)cc1 (centres unmarked)
10
